Listing of entries alongside the reported IC50.
Target: HCV polymerase (Hepatitis C virus genotype 1b)
Construct: a region encoding NS5B (J Virol 1991 March, 65(3), 1105-13, 544 amino acids after deletion of 47 amino acids on the C-terminal); 6xHis (C); made in house; host or cells: Escherichia coli
Sequence (P26663 2420-2963): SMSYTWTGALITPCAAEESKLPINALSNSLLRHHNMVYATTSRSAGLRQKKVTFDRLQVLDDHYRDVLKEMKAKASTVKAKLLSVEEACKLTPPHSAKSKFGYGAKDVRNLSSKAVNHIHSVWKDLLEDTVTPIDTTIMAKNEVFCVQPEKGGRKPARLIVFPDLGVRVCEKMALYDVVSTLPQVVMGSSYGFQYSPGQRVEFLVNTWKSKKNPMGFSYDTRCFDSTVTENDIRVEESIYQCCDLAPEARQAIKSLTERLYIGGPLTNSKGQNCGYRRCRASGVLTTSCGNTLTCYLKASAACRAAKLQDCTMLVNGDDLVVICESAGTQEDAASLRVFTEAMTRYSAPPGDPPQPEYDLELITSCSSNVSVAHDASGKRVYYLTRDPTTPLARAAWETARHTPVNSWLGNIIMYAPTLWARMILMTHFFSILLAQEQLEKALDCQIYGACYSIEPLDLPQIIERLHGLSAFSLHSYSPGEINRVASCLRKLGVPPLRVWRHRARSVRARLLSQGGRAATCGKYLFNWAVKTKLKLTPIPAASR
Assay: biochemical
Set-up: species or system HCV BK strain
Counter-ions that a name gives are not always drawn.

[
  {
    "COMPOUND": "CC(C)(Cc1ccc(O)cc1)NC(=O)c1ccc2c(C3CCCCC3)c3n(c2c1)CCOc1ccccc1-3 [Example 2-220]",
    "IC50": "0.1 to 1 µM"
  },
  {
    "COMPOUND": "CSc1ccc2c(c1)N(C)CCn1c-2c(C2CCCCC2)c2ccc(C(=O)NC3(C(=O)Nc4ccc(/C=C/C(=O)O)cc4)CCC3)cc21 [Example 1-450]",
    "IC50": "< 0.1 µM"
  },
  {
    "COMPOUND": "COC1CCCN(CCN2CCn3c(c(C4CCCCC4)c4ccc(C(=O)O)cc43)-c3ccc(C)cc32)CC1 (stereo not drawn) [Example 1-525, dihydrochloride]",
    "IC50": "< 0.1 µM"
  }
]

Measured values drawn from patent US20070049593A1 for this set.
